System: NCI-H2347
Assay: relative viability (nuclei count vs DMSO), 5 days (fraction); higher = more cells survive
Conditions: first compound 0.253 µM
outcome measure: relative viability
Reply with the value as a number alone.

## Input Could you please provide reported relative viability for C=C1C(=O)O[C@@H](CCCCCCCC)[C@@H]1C(=O)O [C-75] + CC1(C)CCC(c2ccc(Cl)cc2)=C(CN2CCN(c3ccc(C(=O)NS(=O)(=O)c4ccc(N[C@H](CCN5CCOCC5)CSc5ccccc5)c(S(=O)(=O)C(F)(F)F)c4)cc3)CC2)C1 [Navitoclax] (partner 0.5 µM) ? Thanks!
## Output 1.03

More entries:
## Input Could you please provide reported relative viability for C=C1C(=O)O[C@@H](CCCCCCCC)[C@@H]1C(=O)O [C-75] + COc1cccc2cc(-c3nc([C@H]4CC[C@H](C(=O)O)CC4)n4ncnc(N)c34)[nH]c12 [OSI-027] (partner 0.5 µM) ? Thanks!
## Output 0.523

## Input Could you please provide reported relative viability for C=C1C(=O)O[C@@H](CCCCCCCC)[C@@H]1C(=O)O [C-75] + CS(=O)(=O)CCNCc1ccc(-c2ccc3ncnc(Nc4ccc(OCc5cccc(F)c5)c(Cl)c4)c3c2)o1 [Lapatinib] (partner 2 µM) ? Thanks!
## Output 0.94

## Input Could you please provide reported relative viability for C=C1C(=O)O[C@@H](CCCCCCCC)[C@@H]1C(=O)O [C-75] + CC(=O)Nc1cccc(-n2c(=O)n(C3CC3)c(=O)c3c(Nc4ccc(I)cc4F)n(C)c(=O)c(C)c32)c1 [Trametinib] (partner 0.02 µM) ? Thanks!
## Output 0.193

====

// values below are reported relative viability
Test system: RERF-LC-KJ
Assay: relative viability (nuclei count vs DMSO), 5 days (fraction); higher = more cells survive
Conditions: first compound 0.01 µM
Reply with the value as a number alone.

## Input Could you please provide reported relative viability for NC(=O)Nc1cc(-c2cccc(F)c2)sc1C(=O)N[C@H]1CCCNC1 [AZD7762] + Nc1ncn([C@H]2C[C@H](O)[C@@H](CO)O2)c(=O)n1 [Decitabine] (partner 2 µM) ? Thanks!
## Output 0.743

## Input Could you please provide reported relative viability for NC(=O)Nc1cc(-c2cccc(F)c2)sc1C(=O)N[C@H]1CCCNC1 [AZD7762] + CC(C)C[C@H](NC(=O)[C@H](Cc1ccccc1)NC(=O)c1cnccn1)B(O)O [Bortezomib] (partner 0.002 µM) ? Thanks!
## Output 1.16

## Input Could you please provide reported relative viability for NC(=O)Nc1cc(-c2cccc(F)c2)sc1C(=O)N[C@H]1CCCNC1 [AZD7762] + Cc1cc(Nc2cc(N3CCN(C)CC3)nc(Sc3ccc(NC(=O)C4CC4)cc3)n2)n[nH]1 [Tozasertib] (partner 0.1 µM) ? Thanks!
## Output 0.637

## Input Could you please provide reported relative viability for NC(=O)Nc1cc(-c2cccc(F)c2)sc1C(=O)N[C@H]1CCCNC1 [AZD7762] + Cc1nc(Nc2ncc(C(=O)Nc3c(C)cccc3Cl)s2)cc(N2CCN(CCO)CC2)n1 [Dasatinib] (partner 0.075 µM) ? Thanks!
## Output 0.847

More entries:
## Input Could you please provide reported relative viability for NC(=O)Nc1cc(-c2cccc(F)c2)sc1C(=O)N[C@H]1CCCNC1 [AZD7762] + CS(=O)(=O)CCNCc1ccc(-c2ccc3ncnc(Nc4ccc(OCc5cccc(F)c5)c(Cl)c4)c3c2)o1 [Lapatinib] (partner 2 µM) ? Thanks!
## Output 0.865
